# MEASUREMENT_NOTES: duplex melting temperature (HRM, EvaGreen); higher = more stable duplex
# CONDITIONS_USED: duplex concentration 1 µM; backbone: PS-PO (listed strand fully phosphorothioate, complement phosphodiester)
Listing: duplex melting temperature of selected sequences

SEQUENCE_CODE | duplex melting temperature / °C
GTGAGCAGAAGGGGTT | 59.4
CGACATGTATGGCACAG | 58.4
CTCGGAGGCCCCATTTA | 60.5
AGCACGGTGGTACAACA | 60.3
TTCTACATCCATCTTAATCCCA | 59.7
GAGCAGAAGGGGTTGT | 58.2

###

# MEASUREMENT_NOTES: duplex melting temperature (HRM, EvaGreen); higher = more stable duplex
# CONDITIONS_USED: duplex concentration 2.5 µM; backbone: PO-PO (both strands phosphodiester DNA)

SEQUENCE_CODE | duplex melting temperature
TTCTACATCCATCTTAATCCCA | 69.3 °C
CGGGATTTCTGGCATCATTGTCCT | 77.2 °C
CCGTTGCTGCTAGG | 65.8 °C
GGTTGCGGTGGCCAAC | 72.5 °C
CAAACTTAGTAATCACGCCCAGCAACCA | 79.5 °C
AATGAGGAGTGAAATGG | 62.9 °C
